- TARGET OR TEST SYSTEM: Recombinant human LSD1 (Homo sapiens)
- PROCEDURE SUMMARY: LSD1 inhibition assay (HTRF LSD1 Histone H3K4 mono-demethylation assay, me1->me0)
- Type: biochemical
- ASSAY CONDITIONS: 20 nM recombinant human LSD1, 95 nM H3K4(me1) biotinylated peptide, 15 min preincubation, 60 min at 25° C., read-out: LSD1 inhibition IC50 (nM range)
Entries and their measured IC50 follow.

N#Cc1ccc(-c2cccc(CC3CNCCO3)c2N2CC(F)C2)cc1F (stereo not shown)    100 to 1000 nM
N#Cc1ccc(-c2cccc(CN3CCCC4(CCN4)C3)c2C2CC2)cc1F (stereo not shown)    100 to 1000 nM
N#Cc1ccc(-c2cc(C[C@H]3CNCCO3)ccc2N2CCC2)cc1F (single isomer, unassigned)    100 to 1000 nM
N#Cc1ccc(-c2cccc(CN3CCC4(CC3)CNC4)c2Cl)cc1F    25 to 100 nM
N#Cc1ccc(-c2cc(CN3CC4(CNCCO4)C3)ccc2N2CCCC2)cc1F    > 1000 nM

# context switch: different compound, same IC50
Complete the entry with IC50 for CC(C)Oc1c(CN2[C@@H]3CC[C@H]2[C@@H](N)C3)cccc1-c1ccc(C#N)c(F)c1 (racemic)
25 to 100 nM

Data provenance: patent US20260209214A1
